These entries and their values trace back to ChEMBL document CHEMBL3769315.

Assay: AUCinfinity in CD-1 mouse plasma at 50 mg/kg, ip after 24 hrs by UPLC-MS/MS analysis
Type: ADME, organism-based
Design: dose 50 mg/kg, route intraperitoneal, time infinity
OBSERVABLE: AUC(0-inf) (µM·h)

{"SMILES_REPR": "CN1CCN([C@@H](c2ccccc2)c2ccc(Cl)cc2)CC1", "VALUE": 48.9}

* * *

Experiment: in vitro
Details: human, Huh7.5.1 cells and HepG2 cells

{"MOLECULE": "NCCOCCN1CCN(C(c2ccccc2)c2ccc(Cl)cc2)CC1 (racemic)", "selectivity ratio": "< 1.8"}

* * *

Experiment: Metabolic stability in rat liver microsomes assessed as half life by LC-MS/MS analysis in presence of NADPH
OBSERVABLE: half-life (h)

{"SMILES_REPR": "[2H]C([2H])([2H])CN1CCN([C@H](c2ccccc2)c2ccc(Cl)cc2)CC1", "VALUE": 2.9}
{"SMILES_REPR": "CCN1CCN([C@H](c2ccccc2)c2ccc(Cl)cc2)CC1", "VALUE": 2.2}
